tested on: test plant species; assay: Post-emergent herbicidal activity test (greenhouse, foliar spray, visual growth reduction); type: in vivo; conditions: post-emergence, 336 h, IPOHE: ivy-leaf morning glory (Ipomoea hederacea), 140 g ai/ha, 14 days after application, read-out: Visual Growth Reduction (%) 14 Days After Application, IPOHE
VALUE KIND: pest or weed control at 140 g/ha

SMILES RECORD | VAL
CCOc1c(Cl)ccc(-c2ccc(Cl)c(C(=O)OC)n2)c1Cl | 0 to 29%
O=C(O)c1nc(-c2ncc(Cl)c(C(F)F)c2Cl)ccc1Cl | 95 to 100%

Exam item: Identify measured pest or weed control at 140 g/ha corresponding to `CCCCOC(=O)c1nc(-c2ccc(Cl)c(OC)c2F)ccc1Cl`
Marked response: 30 to 44%

Exam item: Identify measured pest or weed control at 140 g/ha corresponding to `COC(=O)c1nc(-c2ccc(C(F)F)cc2)ncc1Cl`
Marked response: 30 to 44%

Exam item: Identify measured pest or weed control at 140 g/ha corresponding to `COC(=O)c1nc(-c2ccc(Cl)c(C)c2F)ccc1Cl`
Marked response: 0 to 29%
